Measured composite z-score values are reported for all entries that follow.
target: Dickkopf-related protein 1 (Homo sapiens) (UniProt O94907); test: DKK1 binders on small-molecule microarrays, primary screen, biochemical, small-molecule microarray, 635 nm fluorescence scan (AID 1106); settings: DKK1 binding, higher = more signal;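 note: score merges emission near 667 nm with signal to noise over three replicate slides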
Sequence (O94907 whole entry, looked up): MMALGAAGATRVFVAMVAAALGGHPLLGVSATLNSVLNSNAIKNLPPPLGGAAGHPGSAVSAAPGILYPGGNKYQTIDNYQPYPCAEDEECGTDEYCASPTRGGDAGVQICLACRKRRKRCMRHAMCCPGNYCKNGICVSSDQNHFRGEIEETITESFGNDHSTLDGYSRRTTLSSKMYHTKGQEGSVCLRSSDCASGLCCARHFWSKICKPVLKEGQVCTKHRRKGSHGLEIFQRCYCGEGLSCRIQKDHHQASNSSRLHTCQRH
Just the number, please, no unit after it.

COC(=O)[C@@]1(Cc2ccc(OC)cc2)[C@H]2c3cc(C(=O)N(C)C)n(CCc4ccccn4)c3C[C@H]2CN1C(=O)c1ccccc1 -0.586
CCC[C@@H]1C[C@@]1(CCC)[C@@H](NC(=O)c1ccccc1)c1cccc(Cl)c1 -0.202
COCCCNC(=O)[C@@H]1c2ccccc2C(=O)N(Cc2ccccc2Cl)[C@H]1c1ccc(CO)cc1 0.412

Reported composite z-score ( "COCC(=C=CC[C@@H](O)c1cccc(OCCO)c1)C[C@@H](O)c1ccccn1" ) = 0.307

---

// composite z-score lookup, one value per entry
test system: XIP peptide (Xip251-270) binding; assay: small-molecule binders of XIP peptide, primary screen, biochemical, small-molecule microarray, fluorescence 635/667 nm, 0.1 µg/mL protein (AID 1182); conditions: fluorescent protein binding, 635 nm, higher = more signal, called active from +8 up or from −8 down
Please reply with the value in numeric form only.

These solved cases illustrate the format of a correct answer.
Compound	System Name	composite z-score
O=C1c2ccccc2[C@](Cc2ccccc2I)(C(=O)NCCN2CCOCC2)[C@H](c2ccc(CO)cc2)N1C1CCCCC1	XIP peptide (Xip251-270) binding	0.45
CC(C)C[C@@H]1NC(=O)[C@H](C(C)C)NC(=O)[C@@]23C(=O)N[C@@H](Cc4ccccc4)C2[C@H](C)[C@@]2(C)O[C@H]2C3/C=C/CC/C=C/CNC1=O (stereo partly specified)	XIP peptide (Xip251-270) binding	0.758
COC(=O)C[C@H]1O[C@]2(C(=O)N(C)c3ccccc32)[C@@H](C)[C@@H]1[Si](C)(C)F	XIP peptide (Xip251-270) binding	-0.0066
C=CCOC(=O)[C@H]1[C@@H]2C(=O)O[C@@H](c3ccccc3)[C@@H](c3ccccc3)N2[C@@H](c2ccc(OCCOC(=O)[C@@H]3C[C@@H]4C(=O)N[C@@H](CCCCNC(C)=O)C(=O)N4[C@@H]3c3ccc(O)cc3)cc2)[C@]12C(=O)Nc1ccccc12	XIP peptide (Xip251-270) binding	2.75
O=C1N(Cc2ccccc2)c2ccccc2[C@@H]2OC(c3ccc(OCCCO)cc3)=N[C@]12CCS(=O)(=O)c1ccccc1	XIP peptide (Xip251-270) binding	0.7

The value of composite z-score measured for the compound "COc1ccc(C#Cc2ccc3c(c2)[C@]2(C(=O)N3)[C@H](C(=O)Nc3nc4ccccc4s3)[C@H]3C(=O)O[C@H](c4ccccc4)[C@H](c4ccccc4)N3[C@@H]2c2ccc(O)cc2)cc1" turned out to be 0.0642

---

target: NADPH oxidase 5 (Homo sapiens) (UniProt Q96PH1); assay: NOX5-dependent H2O2 signal modulators, primary screen, NOX inhibitor project, cell-based, HEK293-NOX5, Amplex Red fluorescence (AID 1161); conditions: HEK293-NOX5, ionomycin, 45 min, higher = more signal
Sequence (Q96PH1 whole entry, looked up): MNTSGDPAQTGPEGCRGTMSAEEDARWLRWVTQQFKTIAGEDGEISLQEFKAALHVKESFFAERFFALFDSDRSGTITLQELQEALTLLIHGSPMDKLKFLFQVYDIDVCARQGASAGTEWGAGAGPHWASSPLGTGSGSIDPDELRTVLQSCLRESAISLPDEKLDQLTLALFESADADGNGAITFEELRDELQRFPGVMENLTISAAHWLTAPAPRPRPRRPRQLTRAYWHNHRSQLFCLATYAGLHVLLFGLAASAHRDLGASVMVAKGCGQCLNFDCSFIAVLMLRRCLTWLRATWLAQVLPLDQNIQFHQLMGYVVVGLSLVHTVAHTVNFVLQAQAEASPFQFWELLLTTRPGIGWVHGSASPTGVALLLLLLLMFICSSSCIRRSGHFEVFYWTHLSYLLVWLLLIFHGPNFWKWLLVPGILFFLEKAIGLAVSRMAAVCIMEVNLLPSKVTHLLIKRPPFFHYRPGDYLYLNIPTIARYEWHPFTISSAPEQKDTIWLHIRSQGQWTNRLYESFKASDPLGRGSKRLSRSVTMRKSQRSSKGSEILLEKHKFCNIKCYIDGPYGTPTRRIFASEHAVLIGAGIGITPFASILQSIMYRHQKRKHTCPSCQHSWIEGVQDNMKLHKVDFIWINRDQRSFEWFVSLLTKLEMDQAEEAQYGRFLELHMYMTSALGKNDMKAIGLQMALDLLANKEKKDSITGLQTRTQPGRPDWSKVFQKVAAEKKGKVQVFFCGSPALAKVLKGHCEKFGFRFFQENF
Outcome Measure: z-score
// return a plain number; no unit text

Molecule	z-score
O=C1O[C@H](c2ccccc2)[C@H](c2ccccc2)N2[C@H]1[C@@H](C(=O)N1CCCCCCC1)[C@]1(C(=O)Nc3ccc(C#CCCO)cc31)[C@H]2c1ccccc1OCCO	1.67
Cc1ccc(S[C@]2(C(=O)NCCCN(C)C)CC(=O)N(Cc3ccccc3C(F)(F)F)[C@@H]2c2ccc(CO)cc2)cc1	0.526
CC(C)N1C(=O)C[C@@](C(=O)NCC(F)(F)F)(c2ccc([N+](=O)[O-])cc2)[C@H]1c1ccc(CO)cc1	-0.127
CC(=O)n1cc(C(O)C2C=CC3C(=O)N(c4ccccc4)C(=O)C3N2Nc2ccc([N+](=O)[O-])cc2)c2ccccc21 (stereo not given)	-1.91
COC(=O)[C@@]1(Cc2ccc(F)cc2)[C@H]2c3cc(C(=O)N(C)C)n(Cc4ccccc4)c3C[C@H]2CN1C(=O)c1ccccc1	1.89
C=CC(=C)[C@H]1Oc2ccccc2S(=O)(=O)N2CCC[C@@H]12	-1.38
NCCCCCNC(=O)[C@@H]1C[C@@H]2C(=O)N[C@@H](Cc3ccccc3)C(=O)N2[C@@H]1c1ccc(O)cc1	-0.657
O=C1NC(=O)C2C1C=CC(C(O)c1cccs1)N2Nc1ccc(Cl)cc1Cl (stereo not given)	-1.57

z-score reading for "NC(=O)NCC#Cc1ccc2c(c1)[C@]1(C(=O)N2)[C@H](C(N)=O)[C@H]2C(=O)O[C@H](c3ccccc3)[C@H](c3ccccc3)N2[C@@H]1c1ccc(O)cc1" : -0.479

Memo: "CC(C)C[C@@H]1NC(=O)[C@@H]2C[C@H](C(=O)O)[C@H](c3cccc(OCCO)c3)N2C1=O" , reported z-score: 2.01

Lookup result for CCC(CC)C(O)C1C=CC2C(=O)NC(=O)C2N1Nc1ccc(Cl)cc1Cl (stereo not given) ; measured z-score: -2.93

Record summary for "C=CCNC(=O)[C@@H]1[C@H]2C(=O)O[C@H](c3ccccc3)[C@H](c3ccccc3)N2[C@H](c2ccc(O)cc2)[C@@]12C(=O)Nc1ccc(C#CCNC(N)=O)cc12" : reported z-score = 0.0297

Input "C=C[C@H](OC)[C@@H](OC(=O)Nc1ccc(OC)cc1)c1ccc(O)c(F)c1" . Output z-score: 5.13

---

composite z-score listing for selected molecules.
tested on: glycogen synthase kinase-3 (GSK3A per assay name; protocol says GSK3B); assay: GSK3 binders on small-molecule microarrays, primary screen, biochemical, small-molecule microarray, 635 nm fluorescence, GSK3A (AID 1103); conditions: small-molecule microarray binding, fluorescence 635 nm; higher = more signal; note: the record names both GSK3A and GSK3B
// keep it numeric: no unit symbol after the value

Molecule	composite z-score
CCCC#C[Si](O[C@H](CC)c1cn(Cc2cccc(Cl)c2)nn1)(C(C)C)C(C)C	1.05

// "COCCOC(=O)N1C(=O)[C@@]2(c3cc(C#CCC(C(=O)OC)C(=O)OC)ccc31)[C@H](c1ccccc1OCCO)N1[C@H](c3ccccc3)[C@H](c3ccccc3)OC(=O)[C@H]1[C@@H]2C(=O)NC[C@H](O)c1ccccc1" : composite z-score value = 1.29

Kindly note the recorded composite z-score for "COCCCNC(=O)[C@]1(CCC(=O)OC(C)(C)C)N=C(c2ccc(OCCCO)cc2)O[C@@H]1c1ccccc1CN=[N+]=[N-]" , which is 1.3

Lab note: "C=C[C@@H](COC(=O)OC(C)(C)C)N(Cc1ccc(OC)cc1)S(=O)(=O)c1ccc(Br)cc1" gave composite z-score of 0.632

composite z-score in this record for "NC(=O)NCC#Cc1ccc2c(c1)[C@]1(C(=O)N2)[C@H](c2ccccc2OCCO)N2[C@H](c3ccccc3)[C@H](c3ccccc3)OC(=O)[C@H]2[C@@H]1C(=O)Nc1nc2ccccc2s1" : -0.175

Just so you know, measured composite z-score for O=C1C2C=CC(C(O)c3cc(C(F)(F)F)cc(C(F)(F)F)c3)N(n3cnnc3)C2C(=O)N1Cc1ccccc1 (stereo not drawn) came out at -0.261

In plain terms, "C=CCN1C(=O)[C@@]2(Cc3ccccc31)N=C(c1ccc(OCCCO)cc1)O[C@H]2c1ccccc1" has a documented composite z-score of 1.32

Please fill in: composite z-score reported for "COC(=O)[C@@]1(Cc2ccc(OC)cc2)[C@H]2c3cc(C(=O)N4CCCC4)n(Cc4ccc(O)c(OC)c4)c3C[C@H]2CN1C(=O)c1ccccc1" = 0.164

Please fill in: composite z-score reported for "C=C(COC)/C(=C/C[C@@H](OC(=O)c1ccncc1)c1ccc(CO)o1)c1cc(C(=O)OC)ccc1OC" = 1.15

For record "O=C1O[C@H](c2ccccc2)[C@H](c2ccccc2)N2[C@H]1[C@@H](C(=O)N1CCCCCCC1)[C@]1(C(=O)Nc3ccc(C#CC4=CCCCC4)cc31)[C@H]2c1ccc(OCCO)cc1" the listed composite z-score is 1.36

Input "COCCOC(=O)N1C(=O)[C@@]2(c3ccccc31)[C@H](c1ccc(O)cc1)N1[C@H](c3ccccc3)[C@H](c3ccccc3)OC(=O)[C@H]1[C@@H]2C(=O)Nc1nc2ccccc2s1" . Output composite z-score: 1.05

Recorded result, [N-]=[N+]=Nc1ccccc1[C@H]1OC(c2ccc(OCCCO)cc2)=N[C@@]1(CCS(=O)(=O)c1ccccc1)C(=O)NCC(O)CO (stereo partly drawn) , composite z-score: 0.933

"COc1ccc(C#Cc2ccc3c(c2)[C@]2(C(=O)N3)[C@H](C(=O)Nc3nc4ccccc4s3)[C@H]3C(=O)O[C@H](c4ccccc4)[C@H](c4ccccc4)N3[C@@H]2c2ccc(O)cc2)cc1" has a reported composite z-score of 1.25

---

test: E. coli growth modulation, two-sided OD650, primary screen, E. coli filamentation project, strain DRC41, 24 h (AID 1093); details: OD650, 24 h, higher = more signal, called active from +8 up or from −8 down;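 note: MC1000 strain lacking acrAB efflux and sulA so SOS filamentation is blocked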
The source made the active and inactive calls.
Outcome Measure: z-score

The cases that follow already have their z-score on record.
Compound	Result
COCCOC(=O)N1C(=O)[C@@]2(c3ccccc31)[C@H](C(=O)N1CCc3cc(OC)c(OC)cc3C1)[C@H]1C(=O)O[C@H](c3ccccc3)[C@H](c3ccccc3)N1[C@@H]2c1ccc(OCCO)cc1	1.68 (inactive)
O=C1NC(=O)C2C1C=CC(C(O)c1cccs1)N2Nc1ccc(Cl)cc1Cl (stereo unspecified)	-0.0056 (inactive)
CCCC[C@@H]1C[C@H]1[C@@H](NC(=O)c1ccco1)c1ccc(-c2ccccc2)cc1	-1.45 (inactive)

Kindly note the recorded z-score for COc1cc(NN2C(C(O)c3ccco3)C=CC3C(=O)N(c4ccccc4)C(=O)C32)cc(OC)c1OC (stereo unspecified) , which is -1.18 (inactive)

For record "CC(C)CNC(=O)[C@@]1(Cc2ccccc2I)c2ccccc2C(=O)N(C2CCCCC2)[C@H]1c1ccc(CO)cc1" the listed z-score is -0.518 (inactive)

Form: compound = "Oc1ccc2cc[n+](Cc3sc4ccccc4c3Cl)cc2c1" ; z-score = -1.82 (inactive)

z-score reading for "COc1ccc([Si](C)(C)[C@H]2[C@H](CCO)O[C@@]3(C(=O)N(Cc4ccc(N(C=O)c5ccccc5)cc4)c4ccccc43)[C@@H]2C)cc1" : 0.759 (inactive)

The measured values listed here are drawn from PubChem BioAssay.
